B1: FBXO3 (parent)
chain: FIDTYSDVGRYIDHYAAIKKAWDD

Variants of: B1
Experiment: protein stability index of a GFP-peptide fusion (GPS, HEK-293T) (PSI 1-6); higher = more stable;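 further: lentivirally expressed fusions sorted by FACS into six bins by GFP to DsRed ratio, PSI derived from sequencing read proportions per bin multiplied by bin number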
Settings: c terminus: a fixed tail appended
# protein stability index listing for each entry below
// no unit string in output, number only

Some variants with known protein stability index results, for comparison:
# variant designation, protein stability index
records = [
    ("R10L", 1.85),
    ("D23V", 1.48),
    ("A16N", 1.12),
    ("I18Q", 1.54),
]

Identify protein stability index associated with the variant "A16H"
2.12

Identify protein stability index associated with the variant "H14C"
2.31

Identify protein stability index associated with the variant "A16G"
2.44

Identify protein stability index associated with the variant "W22P"
1.69

Identify protein stability index associated with the variant "H14V"
2.27
